Where do the numbers come from? From patent US20190233528A1.

Target: T1, recombinant human CD70 (AviTag, polyhistidine tag and chicken tenascin trimerization domain fused to the … (chicken; human, UniProt P10039 110-139, limits assumed)
T1 construct: domain: trimerization domain; Expressed in Expi293, purified by IMAC and SEC; Copies 3 is inferred from the trimerization domain; not shown: AviTag; polyhistidine tag
T1 sequence: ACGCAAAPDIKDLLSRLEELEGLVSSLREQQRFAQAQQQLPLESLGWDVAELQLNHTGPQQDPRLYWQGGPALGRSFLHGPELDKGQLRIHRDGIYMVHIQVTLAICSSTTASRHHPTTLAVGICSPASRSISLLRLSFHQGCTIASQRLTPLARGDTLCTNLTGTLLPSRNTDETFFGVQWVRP
Assay: SPR (Biacore 8K, 37 C): CD70 captured via anti-AviTag antibody on C1 chip, scFv-Fc as analyte; 1:1 Langmuir fit
measurement-type: koff (s⁻¹)
Return type: number; implicit unit s⁻¹.

Asked: Answer with the recorded koff of 12D7 anti-CD70 scFv-Fc fusion (Fc fusion, scFv-Fc expressed in Expi293; not shown: part of the hinge and Fc from a modified human IgG2) QVQLVESGGGVVQPGRSLRLSCVASGFTFSDYGIHWVRQAPGMGQEWVAVIWYDGSIKKYSDSVKGRFIISRDNSENTVYLQMNSLRGEDTAIYYCARDEVGTFGAFDFWGQGTKVTVSSGGGGSGGGGSGGGGSGGGGSDIQLTQSPSFLSASVGDRVSITCRASQDISSFLAWYQQKPGKAPVLLIYVASTLQSGVPSRFSGSGSGTEFTLTVSSLQPEDFATYYCQQLHVYPITFGQGTRLEIR only.
Given back: 0.000755
